Target: T1, soluble recombinant IGLV3-21^R110-harboring B-cell receptor, monomeric human IgM (170.5 kDa) (human)
T1 construct: Made in 293-HEK cells by transient expression and used as the analyte in BLI; also called soluble IGLV3-21^R110 B-cell receptor; soluble form of the IGLV3-21^R110 BCR
T1 sequence (heavy, as listed by the source limits assumed, chain 1 of 2): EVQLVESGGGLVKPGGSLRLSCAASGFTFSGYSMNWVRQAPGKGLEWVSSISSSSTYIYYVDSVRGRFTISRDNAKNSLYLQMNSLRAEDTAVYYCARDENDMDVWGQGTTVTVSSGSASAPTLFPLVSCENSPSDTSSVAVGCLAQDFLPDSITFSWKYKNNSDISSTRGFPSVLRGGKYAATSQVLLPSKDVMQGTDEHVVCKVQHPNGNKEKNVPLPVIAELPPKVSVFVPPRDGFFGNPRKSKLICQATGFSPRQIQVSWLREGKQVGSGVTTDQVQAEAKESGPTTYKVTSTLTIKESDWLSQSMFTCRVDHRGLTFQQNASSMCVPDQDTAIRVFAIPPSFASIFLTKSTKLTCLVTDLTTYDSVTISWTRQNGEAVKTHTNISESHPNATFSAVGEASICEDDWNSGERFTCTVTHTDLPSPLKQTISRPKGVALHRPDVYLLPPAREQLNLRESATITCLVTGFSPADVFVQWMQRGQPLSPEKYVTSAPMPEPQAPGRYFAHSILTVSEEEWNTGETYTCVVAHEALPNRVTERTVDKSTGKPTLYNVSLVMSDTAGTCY
T1 sequence (light, as listed by the source limits assumed, chain 2 of 2): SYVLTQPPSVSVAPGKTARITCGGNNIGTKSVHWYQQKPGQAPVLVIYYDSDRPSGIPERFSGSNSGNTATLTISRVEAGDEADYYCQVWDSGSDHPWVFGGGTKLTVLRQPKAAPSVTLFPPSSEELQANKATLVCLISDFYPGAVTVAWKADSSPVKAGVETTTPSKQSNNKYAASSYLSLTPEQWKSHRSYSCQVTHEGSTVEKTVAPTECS
Experiment: BLI (Fortebio Octet), antibody captured by anti-human IgG Fc, soluble BCR (monomeric IgM) as analyte, 1:1 model
pKd: −log10 of the molar value.

binder	pKd
humanized anti-IGLV3-21^R110 antibody HC7-LC6 (antibody, human IgG1, V domains shown, Expressed in CHO cells) VH: QVQLQESGPGLVKPSETLSLTCTVSGFSLTSYGIHWIRQSPGRGLEWIGVIWRGGGTDSNAAFMSRITISRDTSKTQVSLKLGSVTAADTAIYYCARSRYDEEESMNYWGQGTSVTVSS VL: EIVLTQSPSSLSASVGDSVTITCRASGNIHSYLAWYQQKPGKAPKLLIYNAKTLADGVPSRFSGSGSGTQYTLTISSLQPEDFATYYCQHFWNTPPTFGAGTKLELK	9.76

Every entry's value here was drawn from patent US20260035459A1.
